Target: T1, soluble L-selectin (Homo sapiens, UniProt P14151 P14151:39-332)
T1 sequence: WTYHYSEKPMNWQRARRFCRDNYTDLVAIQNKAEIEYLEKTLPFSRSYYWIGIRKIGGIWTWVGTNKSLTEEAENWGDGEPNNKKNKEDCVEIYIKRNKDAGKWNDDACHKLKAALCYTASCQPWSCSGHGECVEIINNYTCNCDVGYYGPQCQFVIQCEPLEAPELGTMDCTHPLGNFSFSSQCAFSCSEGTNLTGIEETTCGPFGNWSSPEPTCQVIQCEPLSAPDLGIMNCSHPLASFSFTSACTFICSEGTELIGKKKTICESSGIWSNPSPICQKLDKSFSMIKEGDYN
Assay: filter; 37 C; table prints SEQ 339
Conditions: tags: R&D Systems
pKd: −log10 of the molar value.

Binder: LF1520 (ssRNA, 2'-F C and U) RNA: GGGAGGACGAUGCGGAUCGAUUUCAUGCGUUUUUCGAGUGACGAUCAGACGACUCGCCCGA
pKd: 9.30

This collection of values is drawn from patent US20030059769.
